Target: PRMT5 (Homo sapiens, UniProt O14744)
Construct: purchased Viva (custom protein)
Sequence (O14744 whole entry): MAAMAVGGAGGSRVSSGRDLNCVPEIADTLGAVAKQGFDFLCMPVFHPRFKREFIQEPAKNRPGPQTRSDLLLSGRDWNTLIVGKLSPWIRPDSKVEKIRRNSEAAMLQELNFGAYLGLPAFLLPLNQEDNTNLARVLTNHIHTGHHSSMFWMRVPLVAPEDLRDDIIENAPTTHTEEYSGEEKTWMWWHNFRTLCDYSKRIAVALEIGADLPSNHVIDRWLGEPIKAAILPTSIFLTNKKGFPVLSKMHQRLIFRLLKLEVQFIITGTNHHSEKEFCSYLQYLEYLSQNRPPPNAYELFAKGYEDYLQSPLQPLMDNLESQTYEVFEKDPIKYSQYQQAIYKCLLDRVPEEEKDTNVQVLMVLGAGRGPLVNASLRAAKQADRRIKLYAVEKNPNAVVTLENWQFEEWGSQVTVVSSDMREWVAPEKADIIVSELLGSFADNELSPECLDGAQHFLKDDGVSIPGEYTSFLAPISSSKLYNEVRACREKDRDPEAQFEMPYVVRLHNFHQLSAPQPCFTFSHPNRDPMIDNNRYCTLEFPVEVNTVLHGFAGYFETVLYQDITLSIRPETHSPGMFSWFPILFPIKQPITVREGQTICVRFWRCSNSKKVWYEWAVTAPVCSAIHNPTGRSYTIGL
Sequence (Q9BQA1 whole entry partner): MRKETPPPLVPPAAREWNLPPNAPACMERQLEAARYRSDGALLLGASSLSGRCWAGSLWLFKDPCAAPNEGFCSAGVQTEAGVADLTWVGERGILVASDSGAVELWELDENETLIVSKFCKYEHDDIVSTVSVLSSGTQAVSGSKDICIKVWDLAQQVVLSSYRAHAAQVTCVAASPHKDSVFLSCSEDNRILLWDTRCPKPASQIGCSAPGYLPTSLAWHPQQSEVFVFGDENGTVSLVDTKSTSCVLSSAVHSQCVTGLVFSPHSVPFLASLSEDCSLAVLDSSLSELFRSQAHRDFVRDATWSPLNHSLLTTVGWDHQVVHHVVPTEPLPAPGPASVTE
Test: PRMT5 IC50 assay with no cofactor
Type: biochemical
Conditions: read-out: No Co-factor IC50
test-readout: IC50

Reference set (8 entries):
Cc1ncoc1COc1ccc2c(c1Cl)CCN(C[C@@H](O)CNC(=O)c1cc(NC3CCCC3)ncn1)C2 [Compound 339]    ≥ 5 µM
CC(=O)N1CCC(Nc2cc(C(=O)NCC(O)CN3CCc4nc(OCc5ocnc5C)ccc4C3)cc(N3CCCCC3)n2)CC1 (centres unmarked) [Compound 654]    0.5 to 5 µM
Cc1c(OCc2cn[nH]c2)ccc2c1CCN(C[C@@H](O)CNC(=O)c1ccnc(NC3CCC3)c1)C2 [Compound 254]    0.5 to 5 µM
CCC(=O)N1CCN(c2cc(C(=O)NC[C@H](O)CN3CCc4cc(OCc5cnco5)ccc4C3)cc(NC3CCC3)n2)CC1 [Compound 397]    0.5 to 5 µM
O=C(NC[C@H](O)CN1CCc2cc(OCc3cnco3)ccc2C1)c1cccc(NC2CCC2)c1 [Compound 259]    ≥ 5 µM
COCCN(C)c1cc(NC2CCN(C(C)=O)CC2)cc(C(=O)NC[C@H](O)CN2CCc3cc(OCc4ocnc4C)ccc3C2)c1 (single isomer, unassigned) [Compound 649]    ≥ 5 µM
Cc1nocc1COc1ccc2c(c1C)CCN(C[C@@H](O)CNC(=O)c1ccnc(NC3CCC3)c1)C2 [Compound 263]    ≥ 5 µM
CC(C)(C)N1CCN(c2nc(NC3COC3)cc(C(=O)NC[C@H](O)CN3CCc4c(ccc(OCc5cnco5)c4Cl)C3)n2)CC1 [Compound 370]    ≥ 5 µM

// Input: CC(=O)N1CCC(Nc2cc(C(=O)NC[C@H](O)CN3CCc4c(ccc(OCc5cn[nH]c5)c4Cl)C3)ncn2)CC1 [Compound 261] . Output its IC50 only.
0.5 to 5 µM

Return reported IC50. Input molecule: CC(=O)N1CCN(c2nc(NC3COC3)cc(C(=O)NC[C@H](O)CN3CCc4cc(OCc5cnco5)ccc4C3)n2)CC1 [Compound 321]
0.5 to 5 µM

Entry CC(C)(C)N1CCN(c2nc(NC3COC3)cc(C(=O)NC[C@H](O)CN3CCc4cc(OCc5cnco5)ccc4C3)n2)CC1 [Compound 373] needs its IC50 filled in; supply it.
0.5 to 5 µM

Give IC50 for the following molecule: Cc1ncoc1COc1ccc2c(c1)CCN(C[C@@H](O)CNC(=O)c1cc(NC3COC3)nc(N3CCN(C(C)(C)C)CC3)n1)C2 [Compound 396]
0.5 to 5 µM

Please list IC50 recorded for the molecule O=C(NC[C@H](O)CN1CCc2cc(OCc3cnco3)ccc2C1)c1cc(NC2CCC2)nc(N2CCCCC2)c1 [Compound 320]
0.5 to 5 µM

Provide one value: measured IC50 of Cc1ncoc1COc1ccc2c(c1)CCN(C[C@@H](O)CNC(=O)c1cccc(NC3CCC3)c1)C2 [Compound 283]
≥ 5 µM

* * *

Molecular target: PRMT5 (Homo sapiens)
Construct: purchased Viva (custom protein)
Experiment: PRMT5 IC50 assay with no cofactor
Format: biochemical
test-readout: IC50

Known results for molecules:
Cc1ncoc1COc1ccc2c(c1C)CCN(C[C@@H](O)CNC(=O)c1cc(NC3CCC3)nc(N3CCCCC3)c1)C2    ≥ 5 µM
CCCN(C)c1nc(NC2COC2)cc(C(=O)NC[C@H](O)CN2CCc3c(ccc(OCc4ocnc4C)c3C)C2)n1    ≥ 5 µM
Cc1c(OCc2cnco2)ccc2c1CCN(C[C@@H](O)CNC(=O)c1ccnc(NC3CCN(C(=O)C4CCC4)CC3)c1)C2    0.5 to 5 µM

Kindly review the next molecule as well.
Using known records, supply IC50 for CC(C)CC(=O)N1CC(Nc2cc(C(=O)NC[C@H](O)CN3CCc4cc(OCc5cnco5)ccc4C3)ccn2)C1
≥ 5 µM
